Ki, Serine/threonine-protein kinase pim-3 (Homo sapiens), per-entry values.
Just the number in nM, nothing appended.

# Compound, Test target, Measurement name, Recorded number
measured = [
    ("CCn1cncc(-c2cc3c(-c4cccc(N5CCNCC5)n4)n[nH]c3cn2)c1=O", "Serine/threonine-protein kinase pim-3 (Homo sapiens)", "Ki", 0.07),
    ("Cn1cc(-c2cc3c(-c4cccc(N5CCNCC5)n4)n[nH]c3cn2)cn1", "Serine/threonine-protein kinase pim-3 (Homo sapiens)", "Ki", 0.017),
    ("c1cc(-c2n[nH]c3cnc(-n4ccnc4)cc23)nc(N2CCNCC2)c1", "Serine/threonine-protein kinase pim-3 (Homo sapiens)", "Ki", 0.65),
    ("Cn1cc(-c2cc3c(-c4cccc(N5CCCNCC5)n4)n[nH]c3cn2)cn1", "Serine/threonine-protein kinase pim-3 (Homo sapiens)", "Ki", 0.013),
    ("NC(=O)Nc1cc2c(-c3cccc(N4CCNCC4)n3)n[nH]c2cn1", "Serine/threonine-protein kinase pim-3 (Homo sapiens)", "Ki", 0.68),
]

Asked: Name the reported Ki value associated with the compound Fc1ccccc1-c1n[nH]c2cnc(-c3cnccc3O[C@@H]3CCCNC3)cc12
Given back: 0.11

Asked: Name the reported Ki value associated with the compound Cc1n[nH]c2ccc(-c3cn[nH]c3)cc12
Given back: 3100

Asked: Name the reported Ki value associated with the compound N#CCn1cc(-c2cc3c(-c4cccc(N5CCNCC5)n4)n[nH]c3cn2)cn1
Given back: 0.013

Asked: Name the reported Ki value associated with the compound c1cc(-c2n[nH]c3cnc(C4CCCOC4)cc23)nc(N2CCNCC2)c1 (centres undefined)
Given back: 1

Asked: Name the reported Ki value associated with the compound c1ccc(-c2n[nH]c3cnc(-c4cccnc4)cc23)cc1
Given back: 5

Asked: Name the reported Ki value associated with the compound NCCNc1cccc(-c2n[nH]c3cnc(-c4cccnc4)cc23)n1
Given back: 0.2

Asked: Name the reported Ki value associated with the compound Cn1cc(-c2cc3c(-c4cccc(C5CCNCC5)n4)n[nH]c3cn2)cn1
Given back: 0.12

Asked: Name the reported Ki value associated with the compound Cc1n[nH]c2cnc(-c3cncc(N4CCC(N)CC4)n3)cc12
Given back: 9

Asked: Name the reported Ki value associated with the compound c1cc(-c2n[nH]c3cnc(N4CCOCC4)cc23)nc(N2CCNCC2)c1
Given back: 4.4

Asked: Name the reported Ki value associated with the compound Cc1ccc(-c2n[nH]c3cnc(-c4cnn(C)c4)cc23)nc1N1CCC[C@H](N)C1
Given back: 0.006

Asked: Name the reported Ki value associated with the compound Cc1cncc(-c2cc3c(-c4cccc(N5CCNCC5)n4)n[nH]c3cn2)n1
Given back: 0.01

Asked: Name the reported Ki value associated with the compound NC1CCN(c2cncc(-c3cc4c(-c5ccccc5F)n[nH]c4cn3)n2)CC1
Given back: 0.1

Asked: Name the reported Ki value associated with the compound NC(=O)Cc1cc2c(-c3cccc(N4CCNCC4)n3)n[nH]c2cn1
Given back: 115

Asked: Name the reported Ki value associated with the compound c1cncc(-c2cc3cn[nH]c3cn2)c1
Given back: 1800
